Collected pKd values appear next to each entry.
assay_system: CD8a extracellular domain (Homo sapiens, UniProt P01732 22-182)
Sequence (P01732 22-182): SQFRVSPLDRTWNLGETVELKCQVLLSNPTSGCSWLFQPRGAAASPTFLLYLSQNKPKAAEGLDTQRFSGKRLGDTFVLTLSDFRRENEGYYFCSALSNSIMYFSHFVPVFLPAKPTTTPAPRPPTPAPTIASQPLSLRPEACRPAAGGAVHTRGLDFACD
method_summary: BLI
pKd (log units): -log10 of the concentration in mol/L.

[[record]]
binder = "A8 (structured_DNA) DNA: ATCCAGAGTGACGCAGCAGCTCGATCGTATAGCCGTGACGCAGCTTGAAATGGGATCGCGTCCACAGTTTTGGACACGGTGGCTTAGT"
quantity = "pKd"
reading = 8.25


Supply pKd value. Item: A3 (structured_DNA) DNA: ATCCAGAGTGACGCAGCAACAGAGGTGTAGAAGTACACGTGAACAAGCTTGAAATTGTCTCTGACAGAGGTGGACACGGTGGCTTAGT
7.83

Cited source: paper PMC6783348
